Value source: the supplement of paper PMC6555819

Tested on: RXRa DBDmut IVT, anti-RXR (DBD mutation: RXRa K156A/R161A, NR concentration 90 nM)
experiment-notes: PBM binding z-score (relative to random genomic background probes); higher = stronger binding; sequences stand for … in GC…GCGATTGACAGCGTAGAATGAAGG
Quick reference for PBM binding z-score among some sequences
attribute-measured: PBM binding z-score

>>> print(df.to_string())
                      sequence_string  numeric_value
0  TCATATAAGTAATACAGGTGAAAGTCGGCATCTA           2.03
1  TCTATTAGTTGACGGGCAACCGACGAGTCCGTTT           1.46
2  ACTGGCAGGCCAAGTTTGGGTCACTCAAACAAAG         -0.557
